The values you see were collected from the nanobody polyreactivity screen of Harvey et al. (2022).

measurement.description: yeast display, Sf9 membrane polyspecificity reagent, FACS + sequencing; frameworks hold sequencing errors

[
  {
    "sequence.text": "QVQLVESGGGLVQAGGSLRLSCAASGRIFYNYAMGWYRQAPGKERELVAAISGSGGSTYYADSVKGRFTISRDNAKNTVYLQMNSLKPEDTAVYYCNADTVYTRTAPYDYWGQGSQVTVSS",
    "polyreactivity (PSR sort gate)": "low polyreactivity"
  },
  {
    "sequence.text": "QVQLVESGGGLVQAGGSLRLSCAASGRTFDSYTMGWYRQAPGKERELVADITFTGGSTYYADSVKGRFTISRDNAKNTVYLQMNSLKPDDTAVYYCNADREYKWYFRYDYWGQGTQVTVSS",
    "polyreactivity (PSR sort gate)": "low polyreactivity"
  }
]
